Each recorded value in this set is attributed to PubChem BioAssay AID1208.

Tested on: rat chronic carcinogenicity bioassay, TD50
Test: DSSTox (CPDBAS) Carcinogenic Potency Database Summary Rat Bioassay Results
Settings: TargetSites_Rat_Female: mammary gland; hits give low values
Reported Potency values are given for each entry in this list.
Readout Name: Potency

                                item_smiles  value_reported
0  COc1ccc2c(c1)c(CC(=O)O)c(C)n2C(=O)c1ccc(Cl)cc1  1.15 mg/kg/day
1              CCNc1nc(Cl)nc(NC(C)(C)C#N)n1  6.33 mg/kg/day
2                           Cc1csc(NNC=O)n1  14.4 mg/kg/day

---

System: rat chronic carcinogenicity bioassay, TD50
Test: DSSTox (CPDBAS) Carcinogenic Potency Database Summary Rat Bioassay Results
Details: TargetSites_Rat_BothSexes: stomach; hits give low values
Reported Potency values are given for each entry in this list.
Readout Name: Potency

>>> print(df.to_string())
                        item_smiles  readout_name   value_reported
0  c1ccc2c(c1)cc1ccc3cccc4ccc2c1c34       Potency  0.956 mg/kg/day
1     CN(N=O)C(=O)c1c(N(C)N=O)ncn1C       Potency  0.183 mg/kg/day
2        CN(N=O)C(=O)Nc1nc2ccccc2s1       Potency   1.13 mg/kg/day

---

Tested on: rat chronic carcinogenicity bioassay, TD50
Assay: DSSTox (CPDBAS) Carcinogenic Potency Database Summary Rat Bioassay Results
Settings: TargetSites_Rat_Female: stomach; urinary bladder; hits give low values
Readout Name: Potency

In [3]: df
Out[3]:
                        item_smiles  value_reported
0  Nc1nc(-c2ccc([N+](=O)[O-])o2)cs1  5.85 mg/kg/day

---

System: rat chronic carcinogenicity bioassay, TD50
Test: DSSTox (CPDBAS) Carcinogenic Potency Database Summary Rat Bioassay Results
Conditions: TargetSites_Rat_Female: uterus; hits give low values
Reported Potency values are given for each entry in this list.
Readout Name: Potency

                                item_smiles  value_reported
0  CC(C)C[C@H]1C(=O)N2CCC[C@H]2[C@]2(O)O[C@](NC(=O)[C@@H]3C=C4c5cccc6[nH]c(Br)c(c56)C[C@H]4N(C)C3)(C(C)C)C(=O)N12  33.7 mg/kg/day
1                           CCCC(CCC)C(=O)O  1300 mg/kg/day

---

Test system: rat chronic carcinogenicity bioassay, TD50
Experiment: DSSTox (CPDBAS) Carcinogenic Potency Database Summary Rat Bioassay Results
Conditions: TD50_Rat_Note: TD50 is harmonic mean of more than one positive test; TargetSites_Rat_Female: nervous system; small intestine; hits give low values
Readout Name: Potency

>>> print(df.to_string())
      item_smiles  readout_name   value_reported
0  CCN(N=O)C(N)=O       Potency  0.948 mg/kg/day

---

Tested on: rat chronic carcinogenicity bioassay, TD50
Assay: DSSTox (CPDBAS) Carcinogenic Potency Database Summary Rat Bioassay Results
Settings: TD50_Rat_Note: no positive results; TargetSites_Rat_Female: no positive results
Description: The Carcinogenic Potency Database (CPDB) is a unique and widely used international resource of the results of over 6500 chronic, long-term animal cancer tests on over 1500 chemical substances. The CPDB provides easy access to the bioassay literature, with qualitative and quantitative analyses of both positive and negative experiments that have been published over the past 50 years in the general literature and by the National Cancer Institute/National Toxicology Program. […]
Active and inactive are the calls of the source.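 Rule for the calls: active = at least one rat sex group has a carcinogenic potency value and tumor site recorded; inconclusive = only rat studies were judged inadequate by the national testing program; inactive = no potency or tumor site, with negative rat experiments.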

Item Smiles	Test System	outcome
C=Cc1cccc[n+]1[O-]	rat chronic carcinogenicity bioassay, TD50	inactive
CN(N=O)c1cccnc1	rat chronic carcinogenicity bioassay, TD50	inactive
